molecular target: UniProt Q96PD7; test: DGAT2 enzymatic activity assay (triolein formation, LC/MS/MS); conditions: read-out: IC50 values for inhibition of DGAT2; membrane prep of Sf-9 cells expressing hDGAT2; 25 μM diolein, 10 μM oleoyl-CoA; room temperature; triolein by LC/MS/MS
MEASURED PARAMETER: IC50 (nM)
Respond with the bare value in nM.

Answered examples (5):
MOLECULE	UNITS OF MEASURE	IC50
COc1cccc(-c2ccc(CNC(=O)C(C)c3ccc(C(F)(F)F)cc3)c3cnccc23)c1 (centres unmarked) [Example 141]	nM	566
COc1cccc(-c2ccc(CNC(=O)C3(S(=O)(=O)c4ccc(Cl)cc4)CC3)c3cnccc23)c1 [Example 103]	nM	1180
COc1cccc(-c2ccc(CNC(=O)c3ccc4c(c3)OCCO4)c3cnccc23)c1 [Example 36]	nM	3010
COc1cccc(-c2ccc(CNC(=O)c3cccc(-n4cnnn4)c3)c3cnccc23)c1 [Example 91]	nM	889
COc1cccc(-c2ccc(CNC(=O)Cc3ccc(Oc4ccccc4)cc3)c3cnccc23)c1 [Example 53]	nM	2160

Given the molecule COc1cccc(-c2ccc(CNC(=O)c3cncc(C(F)(F)F)c3)c3cnccc23)c1 [Example 119] , write its reported IC50. 5890

Given the molecule COc1cc(OC)cc(-c2ccc(CNC(=O)Nc3cccc(Cl)c3Cl)c3cnccc23)c1 [Example 152] , write its reported IC50. 198

Given the molecule COc1cccc(-c2ccc(CNC(=O)C3CC3c3ccccc3Br)c3cnccc23)c1 (centres unmarked) [Example 101] , write its reported IC50. 915

----------
molecular target: hDGAT2 (Homo sapiens (Human), UniProt Q96PD7); assay: DGAT2 enzymatic activity assay (triolein formation, LC/MS/MS); details: read-out: IC50 values for inhibition of DGAT2; membrane prep of Sf-9 cells expressing hDGAT2; 25 μM diolein, 10 μM oleoyl-CoA; room temperature; triolein by LC/MS/MS
Sequence (Q96PD7 whole entry): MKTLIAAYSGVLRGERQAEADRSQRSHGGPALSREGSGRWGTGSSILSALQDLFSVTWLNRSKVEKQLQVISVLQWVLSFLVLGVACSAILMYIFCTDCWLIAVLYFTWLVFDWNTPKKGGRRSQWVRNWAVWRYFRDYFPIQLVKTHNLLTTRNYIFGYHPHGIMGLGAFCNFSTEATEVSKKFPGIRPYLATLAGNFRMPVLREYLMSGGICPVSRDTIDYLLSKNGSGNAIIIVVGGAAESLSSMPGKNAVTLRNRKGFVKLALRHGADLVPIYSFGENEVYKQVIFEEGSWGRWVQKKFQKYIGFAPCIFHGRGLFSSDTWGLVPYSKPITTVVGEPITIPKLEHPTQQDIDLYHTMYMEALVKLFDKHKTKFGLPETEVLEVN
pIC50: −log10 of the molar value.
Outcome label depends on pIC50 relative to 6: at/above gives Satisfied, below gives Not satisfied.

Previously resolved entries follow.
COMPOUND	TESTED ON	LABEL CLASS
COc1cccc(-c2ccc(CNC(=O)c3cc(-c4ccccc4)nn3-c3ccccc3)c3cnccc23)c1	hDGAT2 (Homo sapiens (Human), UniProt Q96PD7)	Not satisfied
COc1cccc(-c2ccc(CNC(=O)c3ccnc(C(F)(F)F)c3)c3cnccc23)c1	hDGAT2 (Homo sapiens (Human), UniProt Q96PD7)	Satisfied
COc1cccc(-c2ccc(CNC(=O)c3n[nH]c(=O)c4ccccc34)c3cnccc23)c1	hDGAT2 (Homo sapiens (Human), UniProt Q96PD7)	Satisfied
CCCc1cc(C(=O)NCc2ccc(-c3cccc(C(=O)OC)c3)c3ccncc23)n(C)n1	hDGAT2 (Homo sapiens (Human), UniProt Q96PD7)	Satisfied
COC(=O)c1cccc(-c2ccc(CNC(=O)Cc3ccc(C(F)(F)F)cc3)c3cnccc23)c1	hDGAT2 (Homo sapiens (Human), UniProt Q96PD7)	Satisfied
COc1cccc(-c2ccc(CNC(=O)C(C)c3ccccc3)c3cnccc23)c1 (stereo not shown)	hDGAT2 (Homo sapiens (Human), UniProt Q96PD7)	Satisfied

Reported pIC50 reaches at least 6 for COc1cccc(-c2ccc(CNC(=O)c3cncc(Br)c3)c3cnccc23)c1 ? Not satisfied

Reported pIC50 reaches at least 6 for COc1cccc(-c2ccc(CNC(=O)c3ccnc(-n4cnnn4)c3)c3cnccc23)c1 ? Not satisfied

Reported pIC50 reaches at least 6 for COc1cccc(-c2ccc(CNC(=O)Cc3ccc4c(c3)OCCO4)c3cnccc23)c1 ? Not satisfied

Reported pIC50 reaches at least 6 for COC(=O)c1cccc(-c2ccc(CNC(=O)c3cccc4cnccc34)c3cnccc23)c1 ? Satisfied

Reported pIC50 reaches at least 6 for COc1cccc(-c2ccc(CNC(=O)C3(c4ccc(C(F)(F)F)cc4)CCC3)c3cnccc23)c1 ? Satisfied

----------
target: hDGAT2 (Homo sapiens (Human)); experiment: DGAT2 enzymatic activity assay (triolein formation, LC/MS/MS); conditions: read-out: IC50 values for inhibition of DGAT2; membrane prep of Sf-9 cells expressing hDGAT2; 25 μM diolein, 10 μM oleoyl-CoA; room temperature; triolein by LC/MS/MS
# Lookup of reported log10(IC50) keyed by entry
Please interpret these as log10 of IC50 where IC50 is in nM.

MOLECULE	log10(IC50)
COc1cccc(-c2ccc(CNC(=O)c3noc4c3CCCC4)c3cnccc23)c1	3.97
COc1cccc(-c2ccc(CNC(=O)c3cccc(-n4nc(C)cc4C)c3)c3cnccc23)c1	3.22
COc1cccc(-c2ccc(CNC(=O)c3ccc(N4CCCC4=O)cc3)c3cnccc23)c1	3.29
COc1cccc(-c2ccc(CNC(=O)C3CC3c3ccccn3)c3cnccc23)c1 (centres unmarked)	3.87
COC(=O)c1cccc(-c2ccc(CNC(=O)c3cnn(-c4ccccc4)c3C(F)(F)F)c3cnccc23)c1	2.09

Given the molecule COc1cccc(-c2ccc(CNC(=O)C(C)c3ccccc3F)c3cnccc23)c1 (centres unmarked) , write its reported log10(IC50). 2.33

Given the molecule COc1cccc(-c2ccc(CNC(=O)c3ccccc3-n3cnnn3)c3cnccc23)c1 , write its reported log10(IC50). 2.96

Given the molecule COc1cccc(-c2ccc(CNC(=O)c3cc(-c4ccccc4)no3)c3cnccc23)c1 , write its reported log10(IC50). 3.38

Given the molecule COc1cccc(-c2ccc(CNC(=O)Cc3cccc(F)c3)c3cnccc23)c1 , write its reported log10(IC50). 3.57

Given the molecule COc1cccc(-c2ccc(CNC(=O)c3cc(Br)cnc3F)c3cnccc23)c1 , write its reported log10(IC50). 2.60

----------
target: hDGAT2 (Homo sapiens (Human), UniProt Q96PD7); assay: DGAT2 enzymatic activity assay (triolein formation, LC/MS/MS); details: read-out: IC50 values for inhibition of DGAT2; membrane prep of Sf-9 cells expressing hDGAT2; 25 μM diolein, 10 μM oleoyl-CoA; room temperature; triolein by LC/MS/MS
MEASURED PARAMETER: IC50 (nM)
Respond with the bare value in nM.

MOLECULE	IC50 [nM]
COc1cccc(-c2ccc(CNC(=O)c3ccc4nccnc4c3)c3cnccc23)c1	6000
COc1cccc(-c2ccc(CNC(=O)CN3CCN(c4ccccc4)CC3)c3cnccc23)c1	6670
COc1ccc(C2CC2C(=O)NCc2ccc(-c3cccc(OC)c3)c3ccncc23)cc1 (centres unmarked)	537
COc1cccc(-c2ccc(CNC(=O)C3CCC(c4ccccc4)=N3)c3cnccc23)c1 (centres unmarked)	8000
COc1cccc(-c2ccc(CNC(=O)c3ncco3)c3cnccc23)c1	3200
COc1cccc(-c2ccc(CNC(=O)Cc3ccc(OC(F)(F)F)cc3)c3cnccc23)c1	4450

Given the molecule COc1cccc(-c2ccc(CNC(=O)C3CCN(c4ccc(C(F)(F)F)cc4)CC3)c3cnccc23)c1 , write its reported IC50. 952

Given the molecule CCOc1cccc(-c2ccc(CNC(=O)C3CC3c3ccccc3)c3cnccc23)c1 (centres unmarked) , write its reported IC50. 115

Given the molecule COc1cccc(-c2ccc(CNC(=O)Cc3ccc(C(F)(F)F)cc3)c3cnccc23)c1 , write its reported IC50. 317

Given the molecule COC(=O)c1cccc(-c2ccc(CNC(=O)c3ccnn3C)c3cnccc23)c1 , write its reported IC50. 1230

Given the molecule COC(=O)c1cccc(-c2ccc(CNC(=O)C3CC3c3nc(C)no3)c3cnccc23)c1 (centres unmarked) , write its reported IC50. 96.5

Given the molecule COc1cccc(-c2ccc(CNC(=O)C3CC3c3cccc(OC)c3)c3cnccc23)c1 (centres unmarked) , write its reported IC50. 1180

----------
target: hDGAT2 (Homo sapiens (Human)); test: DGAT2 enzymatic activity assay (triolein formation, LC/MS/MS); details: read-out: IC50 values for inhibition of DGAT2; membrane prep of Sf-9 cells expressing hDGAT2; 25 μM diolein, 10 μM oleoyl-CoA; room temperature; triolein by LC/MS/MS
MEASURED PARAMETER: log10 IC50 (log10 of the value in µM)
Please interpret these as log10 of IC50 where IC50 is in µM.

Given the compound COc1cccc(-c2ccc(CNC(=O)C(C)c3ccc(C4CCCCC4)c(Cl)c3)c3cnccc23)c1 (stereo not shown) , write its reported log10 IC50. 0.84

----------
molecular target: hDGAT2 (Homo sapiens (Human), UniProt Q96PD7); test: DGAT2 enzymatic activity assay (triolein formation, LC/MS/MS); details: read-out: IC50 values for inhibition of DGAT2; membrane prep of Sf-9 cells expressing hDGAT2; 25 μM diolein, 10 μM oleoyl-CoA; room temperature; triolein by LC/MS/MS
MEASURED PARAMETER: IC50 (nM)
Respond with the bare value in nM.

Answered examples (4):
COc1cccc(-c2ccc(CNC(=O)c3ccc(-c4ccccc4O)cc3)c3cnccc23)c1 602
COc1cccc(-c2ccc(CNC(=O)c3c[nH]c(-c4ccccc4)n3)c3cnccc23)c1 5840
COc1cccc(-c2ccc(CNC(=O)Nc3ccc(F)cc3F)c3ncccc23)c1 8190
COc1cccc(-c2ccc(CNC(=O)C34CC(C3)C4)c3cnccc23)c1 268

In the following, a different molecule is considered.
Consider the molecule COc1cccc(-c2ccc(CNC(=O)c3cccc(-c4cccc(F)c4)c3)c3cnccc23)c1 tested on hDGAT2 (Homo sapiens (Human), UniProt Q96PD7); state its IC50. 1200
